- conditionContext: 343.15 K; 101.33 kPa; Liquid; Direct current cell with electrodes
measuredQuantity: electrical conductivity
State the result as a value with its unit after it.

{"columns": ["querySmiles", "electrical conductivity"],
 "data": [
  ["COCC[N+]1(C)CCOCC1.O=S(=O)([N-]S(=O)(=O)C(F)(F)F)C(F)(F)F", "0.257 S/m"],
  ["COCC[N+]1(C)CCCC1.O=S(=O)([N-]S(=O)(=O)C(F)(F)F)C(F)(F)F", "0.648 S/m"],
  ["COCC[N+]1(C)CCCCC1.O=S(=O)([N-]S(=O)(=O)C(F)(F)F)C(F)(F)F", "0.489 S/m"],
  ["CC[N+](C)(C)CCOC.O=S(=O)([N-]S(=O)(=O)C(F)(F)F)C(F)(F)F", "0.551 S/m"]
]}

Q: Returns the measured electrical conductivity for the input compound. Input: CCC[N+](C)(C)CC.O=S(=O)([N-]S(=O)(=O)C(F)(F)F)C(F)(F)F
Result: 0.519 S/m
